target: Neuropeptide Y receptor type 5 (Homo sapiens); assay: In vitro binding affinity against human neuropeptide Y5 receptor
Sequence (Q15761 whole entry): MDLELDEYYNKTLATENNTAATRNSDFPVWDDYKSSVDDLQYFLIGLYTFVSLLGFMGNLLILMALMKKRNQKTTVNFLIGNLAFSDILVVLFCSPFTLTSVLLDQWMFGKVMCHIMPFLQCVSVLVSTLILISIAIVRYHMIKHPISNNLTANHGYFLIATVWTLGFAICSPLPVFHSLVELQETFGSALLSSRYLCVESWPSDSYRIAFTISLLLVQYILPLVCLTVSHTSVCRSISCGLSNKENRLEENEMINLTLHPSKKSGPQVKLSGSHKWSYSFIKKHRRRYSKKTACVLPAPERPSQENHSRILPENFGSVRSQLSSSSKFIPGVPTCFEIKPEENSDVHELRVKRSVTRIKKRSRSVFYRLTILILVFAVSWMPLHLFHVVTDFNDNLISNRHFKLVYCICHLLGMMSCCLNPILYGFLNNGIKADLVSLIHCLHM
pIC50: −log10 of the molar value.
# pIC50 >= 8 gives rule met, anything below gives rule not met

In [3]: df
Out[3]:
                      smiles_representation                               test_system     class
0  O=C1CC[C@H](C(=O)N2CCC(CNc3nc4c(s3)CCCc3ccc(F)cc3-4)CC2)O1  Neuropeptide Y receptor type 5 (Homo sapiens)  rule met

Quick check: does "CC(=O)NC1CCN(CC(=O)Nc2nc3c(s2)CCCc2ccc(F)cc2-3)CC1" have pIC50 greater than or equal to 8?
rule not met

Quick check: does "CN(C)S(=O)(=O)NC[C@H]1CC[C@H](Nc2nc3c(s2)CCSc2ccc(F)cc2-3)CC1" have pIC50 greater than or equal to 8?
rule met

Quick check: does "CC(C)N1CCN(CC(=O)N[C@H]2CC[C@H](CNc3nc4c(s3)CCCc3ccc(F)cc3-4)CC2)CC1" have pIC50 greater than or equal to 8?
rule not met
